Below is a list of entries, each paired with its recorded Emax value.
- target_or_system: Human recombinant PDE3A (hPDE3A) (Homo sapiens, UniProt Q14432)
- Construct: purchased Scottish Biomedical; host or cells: Sf9 insect cells
- Sequence (Q14432 whole entry): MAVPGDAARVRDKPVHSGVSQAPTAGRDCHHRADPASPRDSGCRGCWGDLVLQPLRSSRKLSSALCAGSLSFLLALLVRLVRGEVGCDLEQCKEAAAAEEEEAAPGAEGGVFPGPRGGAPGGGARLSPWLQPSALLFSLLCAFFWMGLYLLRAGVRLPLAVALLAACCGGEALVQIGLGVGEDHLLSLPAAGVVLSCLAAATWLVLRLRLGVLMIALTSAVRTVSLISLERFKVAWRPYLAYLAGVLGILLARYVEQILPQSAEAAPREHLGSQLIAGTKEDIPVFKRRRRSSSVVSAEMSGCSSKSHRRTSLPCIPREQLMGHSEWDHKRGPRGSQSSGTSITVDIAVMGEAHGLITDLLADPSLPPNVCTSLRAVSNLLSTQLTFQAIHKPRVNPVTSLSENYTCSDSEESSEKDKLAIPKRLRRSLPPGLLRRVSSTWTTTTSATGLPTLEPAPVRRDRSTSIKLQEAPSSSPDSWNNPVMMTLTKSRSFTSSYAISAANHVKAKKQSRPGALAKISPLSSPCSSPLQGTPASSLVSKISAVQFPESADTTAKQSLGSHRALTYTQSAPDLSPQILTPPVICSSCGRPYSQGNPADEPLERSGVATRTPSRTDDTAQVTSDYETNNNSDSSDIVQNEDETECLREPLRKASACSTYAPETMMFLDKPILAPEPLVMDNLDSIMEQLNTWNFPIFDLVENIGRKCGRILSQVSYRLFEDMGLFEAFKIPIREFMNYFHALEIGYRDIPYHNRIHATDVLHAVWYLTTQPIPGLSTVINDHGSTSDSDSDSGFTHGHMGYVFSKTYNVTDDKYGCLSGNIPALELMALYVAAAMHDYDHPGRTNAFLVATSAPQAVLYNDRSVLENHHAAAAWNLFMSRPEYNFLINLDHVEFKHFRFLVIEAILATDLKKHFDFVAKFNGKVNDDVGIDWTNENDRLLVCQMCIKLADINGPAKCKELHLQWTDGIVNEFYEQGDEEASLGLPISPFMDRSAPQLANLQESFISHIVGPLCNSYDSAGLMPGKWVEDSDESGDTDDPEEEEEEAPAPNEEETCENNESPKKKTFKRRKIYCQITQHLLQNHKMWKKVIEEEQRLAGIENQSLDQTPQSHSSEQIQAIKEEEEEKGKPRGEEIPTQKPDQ
- assay_notes: In vitro assay PDE3A (SPA, 3H-cAMP hydrolysis);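 also: the method names PDE3A and the table heading PDE3B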
- Type: biochemical
- conditions: read-out: hPDE3B Emax; read-out: Emax
Use % as the unit, but write only the number.

Worked cases, answers included:
compound: C[C@@H]1CCN(C(=O)c2nccnc2Cl)C[C@H]1c1cc(C(F)F)nc2ncnn12 [Compound 237]
target_or_system: Human recombinant PDE3A (hPDE3A) (Homo sapiens, UniProt Q14432)
recorded_metric: Emax
observed_value: 20
--
compound: Cc1cc(C(=O)N2[C@H]3CC[C@H](c4cc(C(F)F)nc5ncnn45)[C@@H]2CC3)cc(C(F)F)n1 [Compound 294]
target_or_system: Human recombinant PDE3A (hPDE3A) (Homo sapiens, UniProt Q14432)
recorded_metric: Emax
observed_value: 14
--
compound: O=C(c1ccc2sccc2c1)N1[C@H]2CC[C@H](c3cc(C(F)F)nc4ncnn34)[C@@H]1CC2 [Compound 372]
target_or_system: Human recombinant PDE3A (hPDE3A) (Homo sapiens, UniProt Q14432)
recorded_metric: Emax
observed_value: 90
--
compound: Cc1cc(C(=O)N2[C@H]3CC[C@H](c4cc(C(F)F)nc5ncnn45)[C@@H]2CC3)cc(F)c1F [Compound 344]
target_or_system: Human recombinant PDE3A (hPDE3A) (Homo sapiens, UniProt Q14432)
recorded_metric: Emax
observed_value: 61
--
compound: C[C@@H]1CCN(C(=O)c2cn(C)c3ccccc23)C[C@H]1c1cc(C(F)F)nc2ncnn12 [Compound 328]
target_or_system: Human recombinant PDE3A (hPDE3A) (Homo sapiens, UniProt Q14432)
recorded_metric: Emax
observed_value: 90

[ask] Param item = CC(C)n1ccc2cc(C(=O)N3[C@H]4CC[C@H](c5cc(C(F)F)nc6ncnn56)[C@@H]3CC4)ccc21 [Compound 355] ; retrieve measured Emax.
[reply] 98

[ask] Param item = CC(C)(C)c1ccc(C(=O)N2[C@H]3CC[C@H](c4cc(C(F)F)nc5ncnn45)[C@@H]2CC3)o1 [Compound 348] ; retrieve measured Emax.
[reply] 70

[ask] Param item = CCCC[C@@H]1CCN(C(=O)c2cc(C)nc(C)c2)C[C@H]1c1cc(C(F)F)nc2ncnn12 (single isomer, unassigned) [Compound 45] ; retrieve measured Emax.
[reply] 1

====

- target_or_system: Human recombinant PDE3A (hPDE3A) (Homo sapiens)
- Construct: purchased Scottish Biomedical; host or cells: Sf9 insect cells
- assay_notes: In vitro assay PDE3A (SPA, 3H-cAMP hydrolysis);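 also: the method names PDE3A and the table heading PDE3B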
- Assay type: biochemical
- conditions: hPDE3B pIC50; read-out: pIC50 (converted)
recorded_metric: IC50 (µM)
Use µM as the unit, but write only the number.

Worked cases, answers included:
compound: O=C(c1ccc2ncsc2c1)N1[C@H]2CC[C@H](c3cc(C(F)F)nc4ncnn34)[C@@H]1CC2 [Compound 25a]
IC50 / µM: 8.71
--
compound: Cc1cc(C(=O)N2CC[C@@H](C)[C@H](c3cc(C(F)F)nc4ncnn34)C2)cc(C(F)F)n1
IC50 / µM: 8.13

Okay, next one:
[ask] Param item = Cc1cc([C@@H]2CN(C(=O)c3cc4ccccc4o3)CC[C@H]2C)n2ncnc2n1 ; retrieve measured IC50.
[reply] 0.275
